Below, each entry is listed with its recorded inhibition at 10 µM.
# Tested on: MDA-MB-231 (breast cancer)
# METHOD_DESCRIPTION: Antiproliferative activity (CCK-8 cell viability), MDA-MB-231
# Format: cell-based
# CONDITION_DESCRIPTION: Homo sapiens, Compound concentration: 10 μM, 72 h, read-out: Antiproliferative activity in cancerous cells, MDA-MB-231 (inhibition of cell growth)

CC1=C(CC(=O)O)c2cc(Cl)ccc2/C1=C\c1ccc(Oc2ccc(F)cc2)cc1 | < 30%

*Q* # return inhibition at 10 µM of CC1=C(CC(=O)O)c2cc(C)ccc2/C1=C\c1cccc(Oc2ccccc2)c1 (system: MDA-MB-231 (breast cancer))
*A* ≥ 50%

*Q* # return inhibition at 10 µM of COc1ccc2c(c1)/C(=C\c1ccc(Oc3ccc(F)cc3)cc1)C=C2CC(=O)O (system: MDA-MB-231 (breast cancer))
*A* ≥ 50%

*Q* # return inhibition at 10 µM of CC1=C(CC(=O)O)c2cc(Cl)ccc2/C1=C/c1ccc(Oc2ccc(F)cc2)cc1 (system: MDA-MB-231 (breast cancer))
*A* ≥ 50%

*Q* # return inhibition at 10 µM of CC1=C(CC(=O)O)c2c(F)ccc(F)c2/C1=C/c1ccc(C(F)(F)F)cc1 (system: MDA-MB-231 (breast cancer))
*A* ≥ 50%

*Q* # return inhibition at 10 µM of CC1=C(CC(=O)O)c2cc(F)ccc2/C1=C\c1ccc(OCCc2ccc(Cl)cc2)cc1 (system: MDA-MB-231 (breast cancer))
*A* ≥ 50%

*Q* # return inhibition at 10 µM of COc1ccc(Oc2cccc(/C=C3/C(C)=C(CC(=O)O)c4cc(Cl)ccc43)c2)cc1 (system: MDA-MB-231 (breast cancer))
*A* < 30%

*Q* # return inhibition at 10 µM of CC1=C(CC(=O)O)c2cc(F)ccc2/C1=C/c1ccc(-c2ccc(Cl)cc2)cc1 (system: MDA-MB-231 (breast cancer))
*A* ≥ 50%

*Q* # return inhibition at 10 µM of CC1=C(CC(=O)O)c2cc(Cl)ccc2/C1=C\c1ccc(Oc2ccc(F)c(F)c2)cc1 (system: MDA-MB-231 (breast cancer))
*A* ≥ 50%
